Just for reference, patent EP4678639A1 is where these values come from.

RUN DESCRIPTION: Liquid stability comparative test (20 mg/mL in purified water, 40 °C, 24 hours, HPLC)
Type: physicochemical
CONDITION SET: 20 mg/mL in purified water, initial time point
Counter-ions that a name gives are not always drawn.
Each record here notes measured Initial Purity (%).
Dear colleague, please send the value followed by its unit.

COMPOUND	Initial Purity (%)
Cc1nc2c(O[C@H]3CCOc4cc(F)cc(F)c43)cc(C(=O)N(C)C)cc2[nH]1 [Hydrochloride Salt (Amorphous Form)]	99.94%
Cc1nc2c(O[C@H]3CCOc4cc(F)cc(F)c43)cc(C(=O)N(C)C)cc2[nH]1 [Pidolate Salt]	99.98%

Now, please, on to the next compound.
Query string: Please report the recorded Initial Purity (%) for Cc1nc2c(O[C@H]3CCOc4cc(F)cc(F)c43)cc(C(=O)N(C)C)cc2[nH]1 [Malate Salt] .
Result string: 99.98%
